- Test system: KM12 colon
- TEST NAME: NCI tumour cell line growth inhibition, 48 h
VALUE TYPE: TGI

Request the reported TGI associated with CC(C)CC1NC(=O)CCC(NC(=O)C(Cc2ccc(O)cc2)NC(=O)OCc2ccccc2)C(=O)NC(Cc2ccccc2)C(=O)NC(Cc2ccccc2)NC1=O (stereo not given)
> 100 µM

Request the reported TGI associated with Cc1cn(C2CC(O)C(COC(N)=O)O2)c(=O)[nH]c1=O (stereo not given)
> 100 µM

Request the reported TGI associated with COc1nc2c(c(=O)[nH]1)N=C(c1ccc(Cl)cc1)CC(c1ccccc1)N2 (stereo not given)
> 100 µM

Request the reported TGI associated with CCc1cccc(NC(=O)c2cc(/C=C/c3ccccc3)[nH]c(=S)n2)c1
> 100 µM

Request the reported TGI associated with CN1CCN(Cc2ccccc2)CC1CC#N (stereo not given)
> 100 µM

Request the reported TGI associated with CC[P+]1(c2ccccc2)CCCCC1
> 100 µM

Request the reported TGI associated with CCOC(=O)c1cc2c(n1Cc1cc(OC)cc(OC)c1)-c1oncc1CC2
> 59.5 µM

Request the reported TGI associated with O=C(c1ccc(Nc2nccc(NCCCCNc3ccnc4cc(Cl)ccc34)n2)cc1)N1CCCCC1
11 µM

Request the reported TGI associated with COC(=O)[C@H](C)N(C)C(=O)[C@H](C)N1[C@@H](c2ccccc2)COC1(C)C
> 100 µM

Request the reported TGI associated with COC1(OC)C2C=CC1C([C@](C)(N)CO)C2 (stereo not given in full)
> 100 µM

====

For each of the compounds below, state its GI50.
- System: SK-MEL-2 melanoma
- TEST NAME: NCI tumour cell line growth inhibition, 48 h

Request the reported GI50 associated with CCOC(=O)c1ccc(NC(=O)c2cccc(NC3=C(Cl)C(=O)N(Cc4ccccc4)C3=O)c2)cc1
> 100 µM

Request the reported GI50 associated with Cc1ccc(NC2=CC(=O)C(=O)c3ccccc32)cc1
1.86 µM

Request the reported GI50 associated with COc1cccc(-c2nn(-c3ccccc3)cc2-c2ccnc(NCCCNS(=O)(=O)c3ccc(C(F)(F)F)cc3)c2)c1
2.84 µM

Request the reported GI50 associated with O=C(COc1cccc(/C=C2\Oc3ccc4ccccc4c3C2=O)c1)c1ccc([N+](=O)[O-])cc1
> 100 µM

Request the reported GI50 associated with CC(C)(C)OC(=O)N1Cc2cc3ccccc3nc2C1CO (stereo not given)
> 100 µM

Request the reported GI50 associated with CCS(=O)(=O)N1CCN(c2ccc(Nc3ncc(C(N)=O)c(NC4CC4)n3)cc2)CC1
4.62 µM

Request the reported GI50 associated with C(=C\c1ccc(OCC2CO2)cc1)/C1=NCOC1 (stereo not given)
10 µM

Request the reported GI50 associated with Cc1ccc(/C(=C/C=C(C#N)C#N)Sc2nc3ccccc3s2)cc1
4.95 µM

Request the reported GI50 associated with CC(=O)/C=C/c1ccc(N(CCO)Cc2ccc(C(C)(C)C)cc2)cc1
96.7 µM

Request the reported GI50 associated with N/C(=N/S(=O)(=O)c1cc(C(=O)Nc2ccc(F)cc2)c(Cl)cc1SCc1ccccc1)Nc1ccccc1O
2.13 µM

====

- System: MCF7 breast
- TEST NAME: NCI tumour cell line growth inhibition, 48 h; in the data active = GI50 below about 0.43 µM; inactive = the rest
The reply should be one of these categories: active, inactive

What classification did Nc1cc(N)c2nc(-c3ccccc3)c(NCc3ccc(Cl)c(Cl)c3)nc2c1 end up with in this test?
inactive

What classification did Cc1cc(OCc2nn(CN3CCN(C)CC3)c(=S)n2/N=C/c2ccc(F)cc2)ccc1Cl end up with in this test?
inactive

What classification did CCOC(=O)CCSC1=CC(=O)c2nc3ccccc3c3ccnc1c23 end up with in this test?
inactive

What classification did C=C1C(=O)O[C@H]2[C@H]1CC/C(COC(=O)/C=C\C(=O)NCc1ccc(Cn3c(=O)sn(-c4ccc(Cl)cc4)c3=O)cc1)=C\CC[C@@]1(C)O[C@@H]21 end up with in this test?
active

====

- Tested on: SN12C renal
- TEST NAME: NCI tumour cell line growth inhibition, 48 h
VALUE TYPE: TGI

Request the reported TGI associated with CCCCCC(/C=C/c1ncccc1OCCCCCC(=O)O)=N\NC1=NCCN1
> 100 µM

Request the reported TGI associated with CC(=N/NC(N)=S)/C(C)=N/NC(N)=S
> 100 µM

Request the reported TGI associated with CC[Si](CC)(CC)OC1[C@@H](O[Si](CC)(CC)CC)[C@@H](CNC(=O)NC)O[C@H]1n1cnc2c(NC(=O)Nc3ccccc3)ncnc21 (stereo not given in full)
4.92 µM

Request the reported TGI associated with C[C@H]1S[C@H](c2c(F)cccc2F)n2c1nc1ccccc12
> 100 µM

Request the reported TGI associated with CCOC(=O)c1ccn2c(c1)c(C#N)c1nc3ccccc3nc12
> 100 µM

Request the reported TGI associated with CNC(=O)NCCN1N=C(C)/C(=C\c2ccccc2)CC1=O
> 100 µM

Request the reported TGI associated with COc1ccc(NC(=O)NNS(=O)(=O)c2ccc(C)cc2)cc1
> 100 µM

Request the reported TGI associated with CCCC(C(=O)Nc1cccc2[nH]cnc12)C(=O)OCC (stereo not given)
> 100 µM

Request the reported TGI associated with COc1ccc(-c2nnc(Nc3nc(O)c(C4=c5cc(Br)ccc5=NC4=O)s3)o2)cc1
52.8 µM

Request the reported TGI associated with Cc1cc(C)c(C(=O)C(C)C(c2ccccc2)c2ccc(Cl)cc2)c(C)c1 (stereo not given)
> 100 µM

====

- System: IGROV1 ovarian
- TEST NAME: NCI tumour cell line growth inhibition, 48 h
For each of the molecules below, state its GI50.

Request the reported GI50 associated with COc1ccc(NC(=O)c2cccc(C3CCc4c(cc(OC)c(OC)c4OC)O3)c2)cc1 (centres undefined)
4.96 µM

Request the reported GI50 associated with C1=C\CCCCN2CC[C@H]3[C@H](CCCC/C=C\CCCN4C[C@@H](CCCCC/1)C[C@@H]3C4)C2
9.27 µM

Request the reported GI50 associated with COc1cccc(-c2nn(-c3ccccc3)cc2-c2ccnc(NCCCNS(=O)(=O)c3ccc(C(F)(F)F)cc3)c2)c1
10.7 µM

Request the reported GI50 associated with C/C=C(\C)C(=O)O[C@@H]1C=CC(=O)O[C@H]1CNC(=O)[C@H](C)O
26.6 µM

Request the reported GI50 associated with O=C(CCl)Nc1ccc(Cc2ccc(NC(=O)CCl)cc2)cc1
1.43 µM

Request the reported GI50 associated with O=c1[nH]c2ccccc2n1C1CCN(CCOc2ccccc2)CC1
91.7 µM

Request the reported GI50 associated with Cc1cc(OCc2nn(CN3CCN(C)CC3)c(=S)n2/N=C/c2ccc(F)cc2)ccc1Cl
16.2 µM

Request the reported GI50 associated with C=CCN1C(=O)[C@]2(SC1=S)[C@H](c1cccc(Cl)c1)CN(C)[C@]21C(=O)NC2C=CC(Cl)=C[C@H]21 (some centres undefined)
2.98 µM

Request the reported GI50 associated with CCC(=C(c1ccc(OCCN2CCCC2)cc1)c1ccc(OCCN2CCCC2)cc1)c1ccc(Cl)cc1
0.582 µM

====

- System: SW-620 colon
- TEST NAME: NCI tumour cell line growth inhibition, 48 h; in the data active means GI50 below about 0.43 µM; inactive means the rest
The reply should be one of these categories: active, inactive

What classification did OCC1OC(n2cnc3c(NCc4ccco4)ncnc32)C(O)C1O (centres undefined) end up with in this test?
inactive

What classification did Nc1cc(N)c2nc(-c3ccccc3)c(NCc3ccc(Cl)c(Cl)c3)nc2c1 end up with in this test?
inactive

What classification did CC1(C)CN(CCNc2nccc(-c3c(-c4cccc(O)c4)nc4sccn34)n2)S(=O)(=O)N1 end up with in this test?
inactive

What classification did COc1cccc(-c2nn(-c3ccccc3)cc2-c2ccnc(NCCCNS(=O)(=O)c3ccc(C(F)(F)F)cc3)c2)c1 end up with in this test?
inactive

What classification did CC(=N\O)/C(C)=N/O.CC(=N\O)/C(C)=N/O.[Fe].[NH2-].c1c[nH]cn1 end up with in this test?
inactive

What classification did CN1/C(=C/C=C/c2n(Cc3ccc4ccccc4c3)c(Cl)c(Cl)[n+]2Cc2ccc3ccccc3c2)Oc2ccccc21 end up with in this test?
active

What classification did Cc1cn2c(/C=C3\C(=O)N(C)c4ccc(Cl)cc43)c(C)nc2s1 end up with in this test?
inactive

What classification did C/C=C(\C)C(=O)O[C@@H]1C=CC(=O)O[C@H]1CNC(=O)[C@H](C)O end up with in this test?
inactive

What classification did NCCCNc1nc2ccccc2c2c(=O)c3cc(F)cc(Cl)c3sc12 end up with in this test?
inactive

====

- Test system: HCC-2998 colon
- TEST NAME: NCI tumour cell line growth inhibition, 48 h; in the data active means GI50 below about 0.43 µM; inactive means the rest
The reply should be one of these categories: True (active), False (inactive)

What classification did COc1cc([C@@H]2c3cc4c(cc3[C@@H](NC(=O)NO)[C@H]3COC(=O)[C@H]23)OCO4)cc(OC)c1O end up with in this test?
False

What classification did O=c1[nH]c(=O)n(C2OC(CO)C(O)C2O)cc1F (stereo not given) end up with in this test?
True

What classification did COc1ccc2nc3ccccc3c(NCc3ccccc3)c2c1 end up with in this test?
False

What classification did NCCCNc1nc2ccccc2c2c(=O)c3cc(F)cc(Cl)c3sc12 end up with in this test?
False

What classification did CCS(=O)(=O)N1CCN(c2ccc(Nc3ncc(C(N)=O)c(NC4CC4)n3)cc2)CC1 end up with in this test?
False

What classification did N/C(=N/S(=O)(=O)c1cc(C(=O)Nc2ccc(F)cc2)c(Cl)cc1SCc1ccccc1)Nc1ccccc1O end up with in this test?
False

What classification did COc1cc(NCCC2CCCCN2)c2ncccc2c1OC (stereo not given) end up with in this test?
False

What classification did CC1(C)CN(CCNc2nccc(-c3c(-c4cccc(O)c4)nc4sccn34)n2)S(=O)(=O)N1 end up with in this test?
False

What classification did CCOC(=O)c1cc2c(n1Cc1ccccc1OC)-c1oncc1CCC2 end up with in this test?
False

What classification did COC(=O)[C@H](CCCCNC(=O)OCc1ccccc1)NC(=O)[C@@H](NC(=O)Nc1cc(C(F)(F)F)cc(C(F)(F)F)c1)C(C)C end up with in this test?
False

What classification did Cc1ccc(NC2=CC(=O)C(=O)c3ccccc32)cc1 end up with in this test?
False

What classification did C=C1C(=O)O[C@H]2[C@H]1CC/C(COC(=O)N[C@H](Cc1c[nH]c3ccccc13)C(=O)OC)=C\CC[C@@]1(C)O[C@@H]21 end up with in this test?
False

What classification did CCOC(=O)c1cc2c(n1Cc1cc(OC)cc(OC)c1)-c1oncc1CC2 end up with in this test?
True

What classification did CCCCNCCCCCNc1cc(OC)cc2cccnc12 end up with in this test?
False

What classification did Cc1cc(OCc2nn(CN3CCN(C)CC3)c(=S)n2/N=C/c2ccc(F)cc2)ccc1Cl end up with in this test?
False
